target: Aromatase (Homo sapiens, UniProt P11511)
Checkbox rule: IC50 lower than 1 µM = Y; IC50 not lower than 1 µM = N.

compound=CCCC[C@H]1C[C@@H]2[C@H](CC[C@]3(C)C(=O)CC[C@@H]23)[C@@]2(C)CCC(=O)C=C12 answer_label=Y
compound=CCCC[C@@H]1C[C@@H]2[C@H](CC[C@]3(C)[C@@H](O)CC[C@@H]23)c2ccc(O)cc21 answer_label=N
compound=CC(=O)OC1=C2C=C[C@@H]3[C@H](CC[C@]4(C)C(=O)CC[C@@H]34)[C@@]2(C)CCC1=O answer_label=N
compound=COc1ccc(CS[C@@H]2CC3=CC(=O)CC[C@]3(C)[C@H]3CC[C@]4(C)C(=O)CC[C@H]4[C@H]23)cc1 answer_label=Y

Below 1 µM on IC50? Entry C[C@]12CC[C@@H]3c4ccc(O)cc4[C@H](c4ccccc4)C[C@H]3[C@@H]1CC[C@@H]2O
N

Confirm or reject: IC50 of C[C@]12CCC(=O)C=C1[C@@H](CCCCCc1ccccc1)C[C@@H]1[C@@H]2CC[C@]2(C)C(=O)CC[C@@H]12 lies strictly below 1 µM
N

IC50 under 1 µM? Item: C[C@]12C=CC(=O)C=C1[C@H](c1ccccc1)C[C@@H]1[C@@H]2CC[C@]2(C)C(=O)CC[C@@H]12
Y

Please determine if CC[C@@H]1C[C@@H]2[C@H](CC[C@]3(C)C(=O)CC[C@@H]23)[C@@]2(C)CCC(=O)C=C12 is below 1 µM in terms of IC50.
Y

Say whether its IC50 is strictly beneath 1 µM. Entry: CC[C@H]1C[C@@H]2[C@H](CC[C@]3(C)C(=O)CC[C@@H]23)[C@@]2(C)CCCC=C12
Y

hey, is IC50 for C[C@]12CCCC=C1CC[C@@H]1[C@@H]2CC[C@]2(C)C(=O)[C@H](Br)C[C@@H]12 lower than 1 µM or not?
N

# strict comparison: is reported IC50 < 1 µM? input = CCO[C@H]1C[C@@H]2[C@H](CC[C@]3(C)C(=O)CC[C@@H]23)c2ccc(O)cc21
N

Quick check: does C[C@]12C=C(CCCc3ccccc3)C(=O)C=C1CC[C@@H]1[C@@H]2CC[C@]2(C)C(=O)CC[C@@H]12 have IC50 under 1 µM?
Y

I wonder whether C[C@]12CC[C@@H]3c4cc(NC(=O)c5ccccn5)c(O)cc4CC[C@H]3[C@@H]1CCC2=O has IC50 below 1 µM. Can you tell?
N

Please determine if C[C@]12CC[C@@H]3c4ccc(O)cc4CC[C@H]3[C@@H]1CCC2=O is below 1 µM in terms of IC50.
N

State whether 1 µM exceeds IC50 recorded for C[C@]12CC[C@H]3[C@@H](CCC4=CCCC[C@@]43CO)[C@@H]1CCC2O (stereo partly specified) .
N

# TODO verify IC50 < 1 µM strictly for this compound: C[C@]12CCC(=O)C=C1C=C(c1ccccc1)[C@@H]1[C@@H]2CC[C@]2(C)C(=O)CC[C@@H]12
N

----------
biological target: Aromatase (Homo sapiens, UniProt P11511)
Examples of compounds with documented IC50 follow.
Hi! Could you send only the number? It should be in µM, unit omitted.

Recorded results for 4 compounds are shown here.
compound="CCCCC1C[C@H]2[C@@H]3CC[C@H](O)[C@@]3(C)CC[C@@H]2[C@@]2(C)CCC(=O)C=C12 (stereo not given in full)" measurement_units=µM reported_value=0.048
compound=C[C@]12CC[C@H]3[C@@H](CCC4=CCCC[C@@]43C)[C@@H]1C[C@@H](O)[C@@H]2O measurement_units=µM reported_value=700
compound=CCCCCCCC[C@@H]1C[C@@H]2[C@H](CC[C@]3(C)C(=O)CC[C@@H]23)[C@@]2(C)CCC(=O)C=C12 measurement_units=µM reported_value=1.8
compound=C[C@]12CC[C@H]3[C@@H](CCC4=CCCC[C@@]43C(F)F)[C@@H]1CCC2=O measurement_units=µM reported_value=1.2

Given C[C@]12C=CC(=O)C=C1[C@@H](CCCc1ccccc1)C[C@@H]1[C@@H]2CC[C@]2(C)C(=O)CC[C@@H]12 , respond with its IC50.
0.511

Return IC50 (reported value) for this compound: C[C@]12CC[C@H]3[C@@H](CCC4=CC(=O)CC[C@@]43C=O)[C@@H]1CCC2=O
1.2

----------
target: Aromatase (Homo sapiens)
pIC50: −log10 of the molar value.
The label depends only on pIC50: Fulfilled if it is at least 5, Not fulfilled if it is smaller.

Say whether C[C@]12C=CC(=O)C=C1C=C[C@@H]1[C@@H]2CC[C@]2(C)C(=O)CC[C@@H]12 shows pIC50 of 5 or more.
Fulfilled

----------
Recorded pIC50 by entry
Target: Aromatase (Homo sapiens, UniProt P11511)
Sequence (P11511 whole entry): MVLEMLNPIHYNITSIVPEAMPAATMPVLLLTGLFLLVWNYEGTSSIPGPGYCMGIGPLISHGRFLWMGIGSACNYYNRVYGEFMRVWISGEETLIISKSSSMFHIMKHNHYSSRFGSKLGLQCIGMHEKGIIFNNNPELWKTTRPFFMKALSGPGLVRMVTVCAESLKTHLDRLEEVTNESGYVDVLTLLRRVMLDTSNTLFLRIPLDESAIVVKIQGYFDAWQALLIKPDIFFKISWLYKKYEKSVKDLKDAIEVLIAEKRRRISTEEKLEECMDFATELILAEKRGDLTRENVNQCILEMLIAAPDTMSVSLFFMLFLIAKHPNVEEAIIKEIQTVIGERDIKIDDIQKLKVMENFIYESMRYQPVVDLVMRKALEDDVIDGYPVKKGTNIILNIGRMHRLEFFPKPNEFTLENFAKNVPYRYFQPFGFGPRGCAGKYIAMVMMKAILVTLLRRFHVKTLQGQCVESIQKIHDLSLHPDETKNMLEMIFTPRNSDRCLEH
Please keep in mind that pIC50 is minus log10 of the molar concentration; only the number is needed.

molecule=C[C@]12C=CC(=O)C=C1CC[C@@H]1[C@@H]2CC[C@]2(C)C3=NN(c4ccccc4)[C@H](c4ccccc4)[C@H]3C[C@@H]12 reported_value=5.70
molecule=CCO[C@@H]1C[C@@H]2[C@H](CC[C@]3(C)C(=O)CC[C@@H]23)[C@@]2(C)CCC(=O)C=C12 reported_value=6.30
molecule=CCO[C@@H]1C[C@@H]2[C@H](CC[C@]3(C)C(=O)CC[C@@H]23)[C@@]2(C)C=CC(=O)C=C12 reported_value=6.25
molecule=COc1ccc([C@@H]2[C@H]3C[C@H]4[C@@H]5CCC6=CC(=O)C=C[C@]6(C)[C@H]5CC[C@]4(C)C3=NN2C)cc1 reported_value=5.68

Query pIC50 for COCSC1=C2CC[C@@H]3[C@H](CC[C@]4(C)C(=O)CC[C@@H]34)[C@@]2(C)CCC1=O
5.00

Provide measured pIC50 value, entry: COCOC1=C2CC[C@@H]3[C@H](CC[C@]4(C)C(=O)CC[C@@H]34)[C@@]2(C)CCC1=O
5.36

State its pIC50: CCO[C@H]1C[C@@H]2[C@H](CC[C@]3(C)C(=O)CC[C@@H]23)[C@@]2(C)CCC(=O)C=C12
5.85

Given the molecule CN1N=C2[C@H](C[C@H]3[C@@H]4CCC5=CC(=O)C=C[C@]5(C)[C@H]4CC[C@]23C)[C@H]1c1ccccc1 , write its reported pIC50.
5.61

Could you please provide reported pIC50 for CO[C@@H]1C[C@@H]2[C@H](CC[C@]3(C)C(=O)CC[C@@H]23)[C@@]2(C)C=CC(=O)C=C12 ? Thanks!
6.21

Respond only with pIC50 recorded for CCCCCCC(=O)O[C@H]1C[C@@H]2[C@H](CC[C@]3(C)C(=O)CC[C@@H]23)[C@@]2(C)CCC(=O)C=C12
7.02

Specify reported pIC50 for the molecule shown: C[C@]12C=CC(=O)C=C1C[C@H](c1ccc(N)cc1)[C@@H]1[C@@H]2CC[C@]2(C)C(=O)CC[C@@H]12
8.00

Look up pIC50 of C/C=C1\CC[C@@]2(C)[C@@H](CC[C@@H]3[C@@H]2CC[C@]2(C)C4=NN(c5ccccc5)[C@H](c5ccccc5)[C@H]4C[C@@H]32)C1 and report it.
5.48

Please look at this molecule and report its pIC50: CC(=O)O[C@H]1[C@@H](n2ccnc2)C[C@H]2[C@@H]3CC=C4C[C@@H](N5CCCC5)CC[C@]4(C)[C@H]3CC[C@@]21C
5.31

Please give measured pIC50 of the following entry: C[C@]12C=CC(=O)C=C1[C@@H](Oc1ccccc1)C[C@@H]1[C@@H]2CC[C@]2(C)C(=O)CC[C@@H]12
6.28

Provide one value: measured pIC50 of COc1ccc([C@@H]2[C@H]3C[C@H]4[C@@H]5CC[C@H]6C[C@@H](O)CC[C@]6(C)[C@H]5CC[C@]4(C)C3=NN2c2ccccc2)cc1
5.23

Consider the molecule C[C@]12C[C@@H](O)C(=O)C=C1CC[C@@H]1[C@@H]2CC[C@]2(C)C(=O)CC[C@@H]12 . State its measured pIC50.
4.82

# return recorded pIC50 for entry COc1ccc([C@@H]2[C@H]3C[C@H]4[C@@H]5CC[C@H]6C[C@@H](OC(=O)C(F)(F)F)CC[C@]6(C)[C@H]5CC[C@]4(C)C3=NN2C)cc1
5.24

For the molecule CCO[C@H]1C[C@@H]2[C@H](CC[C@]3(C)C(=O)CC[C@@H]23)[C@@]2(C)C=CC(=O)C=C12 , give its measured pIC50 value.
5.82

Look up pIC50 of CCC(=O)O[C@@H]1C[C@@H]2[C@H](CC[C@]3(C)C(=O)CC[C@@H]23)[C@@]2(C)CCC(=O)C=C12 and report it.
5.66

Query pIC50 for C[C@]12C=CC(=O)C=C1C[C@@H](CCc1ccc(N)cc1)[C@@H]1[C@@H]2CC[C@]2(C)C(=O)CC[C@@H]12
7.73

Output pIC50 of C[C@]12C=CC(=O)C=C1[C@H](Oc1ccccc1)C[C@@H]1[C@@H]2CC[C@]2(C)C(=O)CC[C@@H]12
4.80

Quote pIC50 reported for C[C@]12CCC(=O)C[C@@H]1CC[C@@H]1[C@@H]2CC[C@]2(C)C3=NN(c4ccccc4)[C@H](c4ccccc4)[C@H]3C[C@@H]12 please.
5.37

Give the measured pIC50 for C[C@]12CCC(=O)C=C1CC[C@@H]1[C@@H]2CC[C@]2(C)C(=O)C(Br)C[C@@H]12 (stereo partly specified)
5.58

For the molecule COc1ccc([C@@H]2[C@H]3C[C@H]4[C@@H]5CC[C@H]6CC(=O)CC[C@]6(C)[C@H]5CC[C@]4(C)C3=NN2C(C)=O)cc1 , give its measured pIC50 value.
5.31

Name the recorded pIC50 of the item CCCC(=O)O[C@H]1C[C@@H]2[C@H](CC[C@]3(C)C(=O)CC[C@@H]23)[C@@]2(C)CCC(=O)C=C12 in your answer.
6.70

State its pIC50: CSC1=C2CC[C@@H]3[C@H](CC[C@]4(C)C(=O)CC[C@@H]34)[C@@]2(C)CCC1=O
5.36
